Cited source: ChEMBL document CHEMBL1201862

Test system: HT-29
Assay: NCI tumour cell line growth inhibition, 48 h
The source made the active and inactive calls. Rule as the data show it: active = GI50 up to about 1.1 µM and inactive = higher.
Possible outcomes: true (active), false (inactive)

>>> df
                                    molecule  assigned_category
 0                 C/C(=N\C1CCCCC1)c1ccccc1O              false
 1  COc1ccc(/C=C2\CCC(C)(CN(C)C)C2=O)cc1 (configuration not stated)              false
 2  Cc1nc(O)nc(N/N=C/c2c3ccccc3c(Cl)c3ccccc23)c1C(=O)Nc1ccc(Cl)cc1              false
 3   CCOC(=O)Nc1cc2ccccc2c(/N=N/c2ccccc2)c1O              false
 4  O=C1c2cccc3cc4ccccc4c(c23)C(=O)N1CCCNCCNCCCN1C(=O)c2cccc3cc4ccccc4c(c23)C1=O               true
 5  C=CC/N=C1\NC(=O)C(CC(=O)Nc2ccc(C)cc2)S1 (configuration not stated)              false
 6  COc1cccc(CCNc2c(C#N)c3n(c4ccccc4[n+]3C)c3ncccc23)c1              false
 7       CSc1nc(Cl)c2c(n1)Sc1nc3ccccc3n1N=C2              false
 8       COc1cc2oc(-c3ccccc3)cc(=O)c2c(O)c1C              false
 9  N#CC(C(=O)/C(=N/N)C(C#N)c1ccccc1)c1ccccc1 (configuration not stated)              false
10  C=CC(C)C1(CCCOCc2ccccc2)C(=S)N2CCC3(CC24CCCC14)OCCO3 (configuration not stated)              false
11  NC(=O)N/N=C(/c1nc2ccc([N+](=O)[O-])cc2nc1O)C(O)c1ccco1 (configuration not stated)              false
12  COc1ccc(N2C(=O)CC(c3c[nH]c4ncccc34)C2=O)cc1 (configuration not stated)              false
13  O=C(O)/C(Cl)=C(Cl)/C=N/NC(=O)c1cc2ccccc2cc1O              false
14  N=C1NC2(O)C(=O)c3ccccc3C2(O)N1 (configuration not stated)              false
15  O=C1CC=C2C3CC4N(CCC45c4ccccc4N1C25)C/C3=C\CO (configuration not stated)              false
16  COc1cc2c(cc1OCCCCCN1C(=O)c3cccc4cccc(c34)C1=O)N=C[C@@H]1CCCN1C2=O               true
17  COC(Cc1ccccc1)NC(C)=O (configuration not stated)              false
18  CCOC(=O)c1cc(C2CCN(Cc3ccccc3)C2=S)c(C(=O)C=[N+]=[N-])[nH]1 (configuration not stated)              false
19  CC(Cc1ccc(O)cc1)NCC(O)c1ccc(O)c(O)c1 (configuration not stated)              false
20  O=C1C(Cl)=C(N2CCN(CCOCCO)CC2)C(=O)c2c(O)ccc(O)c21               true
21        C/C(CC(=O)Nc1ccc(C)cc1C)=N/N=C(N)N              false

###

This listing pairs molecules with measured GI50.
Test system: SW-620
Experiment: NCI tumour cell line growth inhibition, 48 h
Calls of active or inactive are those of the source. Cut-off read from the data, not from the text of the source: active = GI50 up to about 1.1 µM and inactive = higher.

molecule	target system	GI50
CO[C@H]1[C@@H](O)[C@@H](C)O[C@@H](O[C@H]2CC[C@@]3(C)[C@H](CC[C@@H]4[C@@H]3CC[C@]3(C)[C@@H](C5=CC(=O)OC5)CC[C@]43O)C2)[C@@H]1O [ODOROSIDE H]	SW-620	< 0.0025 µM (active)
CC(=O)O[C@H]1CCC2[C@@H]3CCC4c5nonc5CC[C@]4(C)C3CC[C@@]21C (stereo partly drawn)	SW-620	> 10 µM (inactive)
CCO[C@]12C[C@H](OC)[C@@]3(O)CC(C1[C@H]3O)C13C4C2[C@H](OC)C1[C@](COC)(CN4CC)[C@H](O)C[C@@H]3OC (stereo partly drawn)	SW-620	> 100 µM (inactive)
Cc1ccccc1C1OC(=O)c2ccccc21 (stereo not drawn)	SW-620	> 100 µM (inactive)
O=C1[C@H](O)[C@@H]2C(O)O[C@H]3[C@@H]2N1C[C@H]3[Si](c1ccccc1)(c1ccccc1)c1ccccc1 (stereo partly drawn)	SW-620	> 100 µM (inactive)
O=C1CCCc2cc3c(cc21)CC1(C3)Cc2ccc3c(c2C1)C(=O)CCC3 (stereo not drawn)	SW-620	15.6 µM (inactive)
COc1ccc2nc3c([N+](=O)[O-])ccc4c3c(c2c1)N=CN4CCN(C)C	SW-620	3.3 µM (inactive)
CCc1ccc(Nc2ccc([N+](=O)[O-])cc2[N+](=O)[O-])cc1	SW-620	> 100 µM (inactive)
